The origin of these recorded values is ChEMBL document CHEMBL1201862.

System: HT-29
Assay summary: NCI tumour cell line growth inhibition, 48 h
Activity calls are given as the source filed them. No stated cut-off is given here; in the data, active = GI50 up to about 1.1 µM and inactive = higher.
Result category, one only: yes for active, no for inactive

Some solved entries appear below for comparison.
[
  {
    "Compound": "CC(=O)N1CCN(c2ccc(OCC3COC(Cn4ccnc4)(c4ccc(Cl)cc4Cl)O3)cc2)CC1 (stereo not given) [KETOCONAZOLE]",
    "Class label": "no"
  },
  {
    "Compound": "O=C1Nc2ccccc2S/C1=C\\c1cccc(C(F)(F)F)c1",
    "Class label": "no"
  },
  {
    "Compound": "CCCCCCC(=O)OC[n+]1ccc(-c2c(COC(=O)NC(C)C)c(COC(=O)NC(C)C)c3n2CCC3)cc1",
    "Class label": "no"
  }
]

Now look at this one.
Task: Recorded call for Cc1ccc2c(=O)c(C(=O)NNC(=S)NC3CCCCC3)c[nH]c2n1 ?
Result: no

###

System: HL-60
Assay summary: NCI tumour cell line growth inhibition, 48 h
Activity calls are given as the source filed them. Rule as the data show it: active = GI50 up to about 1.1 µM and inactive = higher.
Endpoint name: GI50

Task: Record lookup: for HL-60, what GI50 belongs to O[C@@H]1CCC[C@@H]2NC[C@@H](c3ccc4c(c3)OCO4)[C@H]12 ?
Result: 96.4 µM (inactive)

###

Test system: Hs-578T
Assay summary: NCI tumour cell line growth inhibition, 48 h
Active and inactive are the calls of the source. Cut-off read from the data, not from the text of the source: active = GI50 up to about 1.1 µM and inactive = higher.
Endpoint name: GI50

Study these solved cases before continuing.
[
  {
    "Compound": "O=C(N/N=C(COc1ccccc1Cl)\\N=C\\c1cccnc1)c1ccncc1",
    "Endpoint name": "GI50",
    "Value reported": "66.2 µM (inactive)"
  },
  {
    "Compound": "CCNCCCNc1c2ccccc2nc2ccccc12",
    "Endpoint name": "GI50",
    "Value reported": "0.653 µM (active)"
  },
  {
    "Compound": "O=C1NC(N2CCOCC2)=N/C1=C\\c1ccccc1O",
    "Endpoint name": "GI50",
    "Value reported": "> 100 µM (inactive)"
  }
]

Task: For CCCCCC(/C=N/Nc1ccccc1)C(O)(C(F)(F)F)C(F)(F)F (stereo unspecified) , what is its reported GI50?
Result: > 100 µM (inactive)

Task: For CCOC(=O)[C@H](O)[C@@H](O)C(=O)NCc1ccc(C(=O)c2ccccc2)cc1 , what is its reported GI50?
Result: > 100 µM (inactive)

Task: For Nc1nc(N)c2nc(CNc3ccc(C(=O)O)cc3)[nH]c2n1 , what is its reported GI50?
Result: > 100 µM (inactive)

###

Test system: UACC-62
Assay summary: NCI tumour cell line growth inhibition, 48 h
The source made the active and inactive calls. Cut-off read from the data, not from the text of the source: active = GI50 up to about 1.1 µM and inactive = higher.
Result category, one only: label 1 for active, label 0 for inactive

Some solved entries appear below for comparison.
[
  {
    "Compound": "CC(C)=CCc1c(O)ccc2c1OC1c3ccc(O)c(CC=C(C)C)c3OCC21 (configuration not stated)",
    "Class label": "label 0"
  },
  {
    "Compound": "O[C@@H]1CCC[C@@H]2NC[C@@H](c3ccc4c(c3)OCO4)[C@H]12",
    "Class label": "label 0"
  }
]

Task: Recorded call for O=c1ccc2ccccc2o1 ?
Result: label 0

Task: Recorded call for Nc1nc(Cl)c(N)c(NCC2(CO)CCC(CCc3ccccc3)C2)n1 (configuration not stated) ?
Result: label 0

Task: Recorded call for O=C1Nc2ccccc2S/C1=C\c1cccc(C(F)(F)F)c1 ?
Result: label 0

Task: Recorded call for OC1COC(OCc2ccccc2)C(O)C1O (configuration not stated) ?
Result: label 0

Task: Recorded call for O=C(/C=C/c1ccccc1)CCC1C(=O)NC(=S)NC1=O ?
Result: label 0
